Hello, the source for this data is ChEMBL document CHEMBL1122339, in case you need it.

test system: Mus musculus; test: In vivo potency relative to PGE-2 =100 for diarrheal activity in conscious mice.; type: functional
Consider the following molecules and their measured Relative potency readings.
Lab note: jot the number down without any unit.

O=C(O)CCC/C=C\C[C@@H]1C(/C=C/[C@@H](O)[C@H]2CCc3ccccc3O2)[C@H](O)C[C@@H]1O (stereo partly drawn) : 310

Test item O=C(O)CCC/C=C\C[C@@H]1C(/C=C/[C@@H](O)[C@H]2Cc3ccccc3O2)[C@H](O)C[C@@H]1O (stereo partly drawn) ; Mus musculus; reported Relative potency was 10

Test item O=C(O)CCC/C=C\C[C@@H]1C(/C=C/[C@@H](O)COc2ccccc2)[C@H](O)C[C@@H]1O (stereo partly drawn) ; Mus musculus; reported Relative potency was 150

Test item O=C(O)CCC/C=C\C[C@H]1C(=O)C[C@@H](O)C1/C=C/[C@H](O)C1Cc2ccccc2O1 (stereo partly drawn) ; Mus musculus; reported Relative potency was 15
